Target: CB1 cannabinoid receptor (CB1R) (Mus musculus)
Sequence (P47746 whole entry): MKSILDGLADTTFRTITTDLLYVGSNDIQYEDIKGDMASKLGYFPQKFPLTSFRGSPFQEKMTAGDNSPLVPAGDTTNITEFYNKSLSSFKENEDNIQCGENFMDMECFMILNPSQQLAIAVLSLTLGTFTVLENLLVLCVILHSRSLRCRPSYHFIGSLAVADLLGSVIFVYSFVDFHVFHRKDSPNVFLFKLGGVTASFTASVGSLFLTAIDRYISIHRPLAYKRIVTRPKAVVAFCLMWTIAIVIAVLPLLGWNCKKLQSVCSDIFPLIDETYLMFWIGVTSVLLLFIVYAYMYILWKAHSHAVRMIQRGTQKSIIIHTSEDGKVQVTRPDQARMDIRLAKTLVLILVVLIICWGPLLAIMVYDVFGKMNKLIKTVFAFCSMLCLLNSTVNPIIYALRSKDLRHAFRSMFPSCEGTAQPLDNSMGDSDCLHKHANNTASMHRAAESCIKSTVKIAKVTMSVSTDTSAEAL
Experiment: inhibition of forskolin-activated cAMP accumulation in N18TG2 cells
quantity_name: EC50 (nM)
Answers are plain numbers, in nM.

Please give the documented EC50 of CCCCCCC(C)(C)c1ccc([C@@H]2C[C@@H](O)CC[C@H]2CCCO)c(O)c1 [CP55940]
3.11
